system: F380Y; test: modulators of BK channel variants, profiling panel, selectivity assay, cell-based, U2OS BacMam, thallium flux, beta subunits (AID 1259406); details: at 30 µM;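 also: initial slope of Thallos dye fluorescence rise after thallium is added; log ratio against the mean of 0.3% DMSO vehicle wells on the same plate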
Readout label: log fold change Tl+ flux
Please state the value as a number alone, without comment.

So for `CC[C@@H]1C=CC=CC[C@H](C)[C@@H](O)[C@@H](C)C(=O)[C@H](C)[C@@H](O)[C@H](C)C(=O)[C@H](C)[C@@H](O)[C@H](C)C=CC(=O)O[C@H]2[C@@H](C)[C@@H](CC1)O[C@@]1(CC[C@@H](C)[C@@H](C[C@H](C)O)O1)[C@@H]2C` , the logged log fold change Tl+ flux turned out to be -0.509

`C=CCN1CC[C@]23c4c5ccc(O)c4O[C@H]2C(=O)CC[C@@]3(O)[C@H]1C5` has a reported log fold change Tl+ flux of -0.039

Data point: CNCC(O)c1ccc(O)cc1 (centres undefined) ; log fold change Tl+ flux = -0.0218

The compound listed as `Cc1ncc2n1-c1ccc(Cl)cc1C(c1ccccc1F)=NC2` shows log fold change Tl+ flux equal to -0.403

The compound identified as `COc1ccc2[nH]cc(CCN)c2c1` registered its log fold change Tl+ flux at 0.0218

log fold change Tl+ flux reported for this compound `COc1cccc([C@@]2(O)CCCC[C@@H]2CN(C)C)c1` : -0.0178

The value of log fold change Tl+ flux measured for the compound `Oc1cc(Cl)ccc1Oc1ccc(Cl)cc1Cl` turned out to be -0.452

The reported log fold change Tl+ flux of the compound `CC(C)[C@]12O[C@H]1[C@@H]1O[C@]13[C@]1(O[C@H]1C[C@H]1C4=C(CC[C@@]13C)C(=O)OC4)[C@@H]2O` was -0.0264

According to the records, this compound `Cc1nnc2n1-c1ccc(Cl)cc1C(c1ccccc1)=NC2` displays log fold change Tl+ flux of -0.0314
